Recorded melting point by entry

MOLECULE	melting point
CC1Nc2ccc(-c3cccc(F)c3)cc2C(C)(C)O1 (stereo not drawn)	139 to 140 °C
CC1Nc2ccc(-c3csc(C#N)c3)cc2C(C)(C)O1 (stereo not drawn)	175 to 176 °C
CC1(C)CC(=O)Nc2ccc(-c3cc(F)cc(C#N)c3)cc21	249 to 250 °C
CC1(C)OC(C(F)(F)F)Nc2ccc(-c3cccc(Cl)c3)cc21 (stereo not drawn)	108 to 109 °C
CC1(C)CC(=S)Nc2ccc(-c3cccc(F)c3)cc21	209 to 211 °C
CC1(C)OC(C(F)(F)F)Nc2ccc(-c3cc(F)cc(C#N)c3)cc21 (stereo not drawn)	102 to 103 °C

* * *

Biological target: human PR (Homo sapiens)
Construct: expressed in transfected cells; host or cells: CV-1 cells (electroporated with pLEM-hPR-B and pGL3-2xPRE-luciferase)
Sequence (P06401 whole entry): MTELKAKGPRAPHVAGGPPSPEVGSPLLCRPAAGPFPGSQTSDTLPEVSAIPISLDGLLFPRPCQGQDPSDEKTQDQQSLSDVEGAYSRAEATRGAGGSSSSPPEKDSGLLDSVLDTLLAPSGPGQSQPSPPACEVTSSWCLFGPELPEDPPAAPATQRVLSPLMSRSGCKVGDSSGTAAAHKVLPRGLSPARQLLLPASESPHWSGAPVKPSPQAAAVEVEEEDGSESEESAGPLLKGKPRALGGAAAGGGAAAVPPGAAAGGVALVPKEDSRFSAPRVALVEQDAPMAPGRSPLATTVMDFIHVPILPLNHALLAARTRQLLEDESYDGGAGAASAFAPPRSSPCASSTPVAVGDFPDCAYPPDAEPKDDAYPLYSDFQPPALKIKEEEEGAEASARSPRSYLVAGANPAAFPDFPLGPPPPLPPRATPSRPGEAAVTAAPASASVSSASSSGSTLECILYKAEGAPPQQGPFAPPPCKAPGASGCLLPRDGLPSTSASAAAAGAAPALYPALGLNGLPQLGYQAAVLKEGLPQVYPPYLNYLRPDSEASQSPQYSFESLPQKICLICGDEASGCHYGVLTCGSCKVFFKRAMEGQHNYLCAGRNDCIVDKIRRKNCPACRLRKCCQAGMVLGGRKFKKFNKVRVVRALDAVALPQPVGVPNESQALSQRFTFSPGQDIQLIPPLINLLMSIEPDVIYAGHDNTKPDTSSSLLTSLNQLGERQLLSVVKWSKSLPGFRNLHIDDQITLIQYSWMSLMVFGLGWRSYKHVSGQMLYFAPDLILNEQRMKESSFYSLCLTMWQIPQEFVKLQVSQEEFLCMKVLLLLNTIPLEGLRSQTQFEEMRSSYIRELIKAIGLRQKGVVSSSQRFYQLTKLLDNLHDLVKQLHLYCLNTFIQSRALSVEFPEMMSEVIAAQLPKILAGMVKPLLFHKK
Experiment: PRE-luciferase assay in CV-1 cells
Type: cell-based
Conditions: CV-1 cells co-transfected with human PR and PRE-luciferase; decrease in 3 nM progesterone induced PRE-luciferase activity; read-out: hPR CV-1 IC50
pIC50: −log10 of the molar value.

COMPOUND	pIC50
CC1OC(C)(C)Nc2ccc(-c3cccc([N+](=O)[O-])c3)cc21 (stereo not shown)	5.78

* * *

READOUT_KIND: melting point

COMPOUND	READING
CC1(C)CC(=S)Nc2ccc(-c3cc(F)cc(C#N)c3)cc21 [Example 46]	240 to 242 °C (dec.)
CC1(C2CC2)NC(=O)Nc2ccc(-c3cccc(Cl)c3)cc21 (stereo not shown) [Example 9]	125 to 127 °C
CC1Nc2ccc(-c3ccc(F)c(C#N)c3)cc2C(C)(C)O1 (stereo not shown) [Example 30]	184 to 186 °C
CC1Nc2ccc(-c3ccc(C#N)[nH]3)cc2C(C)(C)O1 (stereo not shown) [Example 20]	201 to 202 °C
Cc1cc(C#N)sc1-c1ccc2c(c1)C(C)(C)OC(C)N2 (stereo not shown) [Example 16]	145 to 146 °C
CN1C(=O)Nc2ccc(-c3cccc(Cl)c3)cc2C1(C)C1CC1 (stereo not shown) [Example 10]	193 to 194 °C
CC1OC(C)(C)c2cc(-c3ccc(C#N)n3C(=O)OC(C)(C)C)ccc2N1C(=O)OCC1c2ccccc2-c2ccccc21 (stereo not shown) [Example 19]	135 to 136 °C
CC1Nc2ccc(-c3cccc(Cl)c3)cc2C(C)(C)O1 (stereo not shown) [Example 28]	144 to 146 °C
CC1(C)CC(=O)Nc2ccc(-c3cccc(F)c3)cc21 [Example 40]	190 to 192 °C
CC1OC(C)(C)c2cc(-c3ccc(C#N)n3C)ccc2N1C(=O)OCC1c2ccccc2-c2ccccc21 (stereo not shown) [Example 21]	63 to 64 °C
CC1Nc2ccc(-c3coc(C#N)c3)cc2C(C)(C)O1 (stereo not shown) [Example 31]	116 to 118 °C
CC1(C)CC(=S)Nc2ccc(-c3cccc(Cl)c3)cc21 [Example 43]	197 to 198 °C
CC1Nc2ccc(-c3csc(C#N)c3)cc2C2(CCCCC2)O1 (stereo not shown) [Example 26]	111 to 112 °C
Cc1cc(C#N)sc1-c1ccc2c(c1)C(C)(C)OC(C(F)(F)F)N2 (stereo not shown) [Example 38]	97 to 98 °C
C[C@@H]1Nc2ccc(-c3cc(F)cc(C#N)c3)cc2[C@](C)(c2ccccc2)O1 [Example 17]	128 to 129 °C
CC1Nc2ccc(-c3cc(F)cc(C#N)c3)cc2C(C)(C)O1 (stereo not shown) [Example 14]	163 to 164 °C
CC1Nc2ccc(-c3ccc(F)c(Cl)c3)cc2C(C)(C)O1 (stereo not shown) [Example 29]	173 to 175 °C
CC1(C)CC(=O)Nc2ccc(-c3cccc(Cl)c3)cc21 [Example 11]	211 to 215 °C
CC1Nc2ccc(-c3ccc(C#N)n3C)cc2C(C)(C)O1 (stereo not shown) [Example 22]	195 to 196 °C
